System: HS 578T breast
Assay: NCI tumour cell line growth inhibition, 48 h
Experimental Readout: TGI (µM)
The figure you give is taken to be in µM; do not add the unit.

Example results:
[[record]]
compound = "COc1cc(-c2nccc3[nH]c(-c4ccc5cc[nH]c5c4)nc23)cc(OC)c1OC"
test_value = 10.3

[[record]]
compound = "NCCOc1cccc(C2(N3CCCCC3)CCCCC2)c1"
test_value = 38.5

[[record]]
compound = "Cc1cccc2sc(NC(=O)NS(=O)(=O)n3cnc4ccccc43)nc12"
test_value = 52.1

[[record]]
compound = "Cc1ccc(NC(=O)c2cc(S(=O)(=O)Nc3nnc(-c4ccccc4)c(-c4ccccc4)n3)c(SCc3ccccc3)cc2Cl)cc1"
test_value = 57.4

[[record]]
compound = "NS(=O)(=O)c1nnc(NC(=S)NC(=O)Nc2ccc(Cl)c(Cl)c2)s1"
test_value = 67.2


What the record says about "O=[N+]([O-])c1cccc2nc3ccccc3c(NCCCCCNc3c4ccccc4nc4cccc([N+](=O)[O-])c34)c12" : TGI is 0.512

What the record says about CC(C)C(Cl)CCC(C)(Cl)C(=O)CBr (stereo not given) : TGI is 23.1

What the record says about "ClCCOCCn1cnc2c(Cl)nc(Cl)nc21" : TGI is 9.05

* * *

Tested on: U251 CNS
Assay: NCI tumour cell line growth inhibition, 48 h
Experimental Readout: TGI

Example results:
[[record]]
molecule = "CCOC(=O)C1(C)CCC(C(C(=O)O)C(=O)O)CC1=O (stereo unspecified)"
experimental_readout = "TGI"
test_value = "> 100 µM"

[[record]]
molecule = "COc1ccc(/C=C2\\C(=O)N(NC(C)=O)c3ccccc32)cc1"
experimental_readout = "TGI"
test_value = "> 100 µM"

[[record]]
molecule = "N#CC(C#N)=C/C=C(\\Sc1ccc(Cl)cc1)c1ccc(F)cc1"
experimental_readout = "TGI"
test_value = "> 34.5 µM"

[[record]]
molecule = "N#Cc1sc2nc3ccccc3n2c1N"
experimental_readout = "TGI"
test_value = "> 100 µM"

[[record]]
molecule = "COc1cc(/C=C/c2cc(/C=C/c3ccc(O)c(OC)c3)n(C(=O)c3ccccc3Br)n2)ccc1O"
experimental_readout = "TGI"
test_value = "> 100 µM"


Next molecule, please.
What the record says about "Cc1nc2c(sc3nc4c(cc32)CCC4)c(=O)o1" : TGI is > 100 µM

* * *

Test system: RPMI-8226 leukemia
Assay: NCI tumour cell line growth inhibition, 48 h; in the data active = GI50 below about 0.43 µM; inactive = the rest
Can you answer with just one of these options? active, inactive

Example results:
[[record]]
compound = "CN(C)c1ccc(-c2cc(-c3ccc(Nc4nc(Nc5ccc(Cl)cc5)nc(Nc5ccc(Cl)cc5)n4)cc3)nc(N)c2C#N)cc1"
target = "RPMI-8226 leukemia"
class_assignment = "inactive"

[[record]]
compound = "Nc1nc(=S)c2ncn(C3OC(COP(=O)(O)O)C(O)C3O)c2[nH]1 (centres undefined)"
target = "RPMI-8226 leukemia"
class_assignment = "inactive"

[[record]]
compound = "Cc1cc(Cl)nc(N(CCNc2ccnc3cc(Cl)ccc23)Cc2ccco2)n1"
target = "RPMI-8226 leukemia"
class_assignment = "inactive"

[[record]]
compound = "COc1cc([C@@H]2c3cc4c(cc3[C@@H](Nc3ccc(NC(=O)c5cc([N+](=O)[O-])cn5C)cc3)[C@H]3COC(=O)[C@H]23)OCO4)cc(OC)c1O"
target = "RPMI-8226 leukemia"
class_assignment = "active"

[[record]]
compound = "COCCOC1=C(Cl)C(=O)c2ccccc2C1=O"
target = "RPMI-8226 leukemia"
class_assignment = "inactive"


Next, consider the following compound.
Q: Fill in: this test's call for CC(=O)NC1C(O[C@H]2C[C@H]3[C@@H]4CC=C5C[C@@H](O)CC[C@]5(C)[C@H]4CC[C@]3(C)[C@H]2[C@H](C)C(=O)CCC(C)C)OCC(O)C1O (some centres undefined) is ___
A: inactive
